molecular target: Muscarinic acetylcholine receptor (Homo sapiens) (UniProt P20309+P08173+P11229+P08172+P08912); details: Cavia porcellus
Description: Inhibition of muscarinic receptor mediated [Ca2+] dependent contraction of guinea pig ileal longitudinal smooth muscle.
Endpoint label: log10 ID50 (log10 of the value in nM)
Recorded ID50 (log10, nM)

Illustrative cases are given below, each with its answer.
Molecule: COC(=O)N1C=CC(C2C(C#N)=C(C)NC(C)=C2C#N)=CC1
log10 ID50: 4.83

Molecule: CO/C(O)=C1\C(C)=NC(C)=C(C(=O)OCC(C)C)C1C1=CCN(C(=O)Oc2ccccc2)C=C1 (stereo not drawn)
log10 ID50: 4.91

Molecule: COC(=O)N1C=CC(C2C(C(=O)OC(C)C)=C(C)N=C(C)/C2=C(/O)OC(C)C)=CC1 (stereo not drawn)
log10 ID50: 3.00

Molecule: COC(=O)N1C=CC=C(C2C(C(=O)OCC(C)C)=C(C)N=C(C)/C2=C(/O)OCC(C)C)C1 (stereo not drawn)
log10 ID50: 2.89

Molecule: COC(=O)N1C=CC=C(C2C(C(=O)OC(C)C)=C(C)N=C(C)/C2=C(/O)OC(C)C)C1 (stereo not drawn)
log10 ID50: 2.12

Molecule: CO/C(O)=C1\C(C)=NC(C)=C(C(=O)OCC(C)C)C1C1=CCN(C(=O)OC(C)(C)C)C=C1 (stereo not drawn)
log10 ID50: 3.07

Molecule: CCOC(=O)C1=C(C)N=C(C)/C(=C(/O)OCC)C1C1=CC=CN(C(=O)OC)C1 (stereo not drawn)
log10 ID50: 2.26

Molecule: CC1=NC(C)=C(C(=O)OC(C)C)C(C2=CC=CN(C(=O)Oc3ccccc3)C2)/C1=C(\O)OC(C)C (stereo not drawn)
log10 ID50: 3.22

The reported log10 ID50 of the molecule CCOC(=O)C1=C(C)N=C(C)/C(=C(/O)OCC)C1C1=CC=CN(C(=O)Oc2ccccc2)C1 (stereo not drawn) was 2.94

The reported log10 ID50 of the molecule CC1=NC(C)=C(C(=O)OCC(C)C)C(C2=CC=CN(C(=O)OC(C)(C)C)C2)/C1=C(\O)OCC(C)C (stereo not drawn) was 3.53

The reported log10 ID50 of the molecule COC(=O)C1=C(C)N=C(C)/C(=C(/O)OC)C1C1=CC=CN(C(=O)Oc2ccccc2)C1 (stereo not drawn) was 3.57

The reported log10 ID50 of the molecule CCOC(=O)C1=C(C)N=C(C)/C(=C(/O)OCC)C1C1=CC=CN(C(=O)OC(C)(C)C)C1 (stereo not drawn) was 2.83

The reported log10 ID50 of the molecule COC(=O)C1=C(C)N=C(C)/C(=C(/O)OC)C1C1=CC=CN(C(=O)OC)C1 (stereo not drawn) was 2.77

---

biological target: Muscarinic acetylcholine receptor (Homo sapiens) (UniProt P20309+P08173+P11229+P08172+P08912); details: Cavia porcellus;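 also: blockade of Ca2+-dependent contraction driven by muscarinic receptors in longitudinal smooth muscle strips of guinea pig ileum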
Endpoint label: ID50 (nM)
Dear colleague, please return just the value in nM, with no unit written.

Illustrative cases are given below, each with its answer.
Molecule: CO/C(O)=C1\C(C)=NC(C)=C(C(=O)OCC(C)C)C1C1=CC=CN(C(=O)OC(C)(C)C)C1 (centres undefined)
Scale unit: nM
ID50: 128
--
Molecule: COC(=O)C1=C(C)N=C(C)/C(=C(/O)OC)C1C1=CC=CN(C(=O)OC(C)(C)C)C1 (centres undefined)
Scale unit: nM
ID50: 5770
--
Molecule: CCOC(=O)C1=C(C)N=C(C)/C(=C(/O)OCC)C1C1=CCN(C(=O)OC)C=C1 (centres undefined)
Scale unit: nM
ID50: 2430

The reported ID50 of the molecule CC1=NC(C)=C(C(=O)OCC(C)C)C(C2=CC=CN(C(=O)Oc3ccccc3)C2)/C1=C(\O)OCC(C)C (centres undefined) was 6460

The reported ID50 of the molecule CC1=NC(C)=C(C(=O)OCC(C)C)C(C2=CCN(C(=O)Oc3ccccc3)C=C2)/C1=C(\O)OCC(C)C (centres undefined) was 510

The reported ID50 of the molecule COC(=O)N1C=CC=C(C2C(C(=O)OC(C)C)=C(C)N=C(C)/C2=C(/O)OC)C1 (centres undefined) was 158
